subject of test: Gal(b1-4)GlcNAc(b1-3)Gal(b1-4)GlcNAc(b1-3)Gal(b1-4)GlcNAc(b1-3)Gal(b1-4)GlcNAc(b1-2)[Gal(b1-4)GlcNAc(b1-3)Gal(b1-4)GlcNAc(b1-3)Gal(b1-4)GlcNAc(b1-3)Gal(b1-4)GlcNAc(b1-6)]Man(a1-6)[Gal(b1-4)GlcNAc(b1-3)Gal(b1-4)GlcNAc(b1-3)Gal(b1-4)GlcNAc(b1-3)Gal(b1-4)GlcNAc(b1-2)Man(a1-3)]Man(b1-4)GlcNAc(b1-4)[Fuc(a1-6)]GlcNAc
test: glycan array binding signal (z-score within array); higher = stronger binding
experimental setup: glycan notation: IUPAC condensed, linker removed
Many of the other results were omitted from the sample, so the strongest signals are more common in it than they were.
measurement kind: glycan array binding signal (z-score)
Simply state the number, no unit and no words.

Task: Entry SGC, Q9M345 (protein) QNLNFTYNGFHPPLTDISLQGLATVTPNGLLKLTNTSVQKTGHAFCTERIRFKDSQNGNVSSFSTTFVFAIHSQIPTLSGHGIAFVVAPTLGLPFALPSQYIGLFNISNNGNDTNHIFAVEFDTIQSSEFGDPNDNHVGIDLNGLRSANYSTAGYRDDHDKFQNLSLISRKRIQVWIDYDNRSHRIDVTVAPFDSDKPRKPLVSYVRDLSSILLEDMYVGFSSATGSVLSEHFLVGWSFRLNGEAPMLSLSKLPKLPRFEPRRIS : reported glycan array binding signal (z-score) = ?
Output: 8.45

Task: Entry DrGal3 (Danio rerio) (protein) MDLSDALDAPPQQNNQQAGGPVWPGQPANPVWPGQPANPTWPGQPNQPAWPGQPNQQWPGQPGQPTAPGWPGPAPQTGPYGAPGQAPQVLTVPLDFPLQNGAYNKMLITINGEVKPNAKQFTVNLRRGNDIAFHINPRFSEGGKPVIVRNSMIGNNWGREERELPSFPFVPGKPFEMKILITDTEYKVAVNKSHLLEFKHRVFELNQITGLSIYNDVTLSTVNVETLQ : reported glycan array binding signal (z-score) = ?
Output: 4.6

Task: Entry AT1G73650(15) (Arabidopsis thaliana), F4HRY1 (protein) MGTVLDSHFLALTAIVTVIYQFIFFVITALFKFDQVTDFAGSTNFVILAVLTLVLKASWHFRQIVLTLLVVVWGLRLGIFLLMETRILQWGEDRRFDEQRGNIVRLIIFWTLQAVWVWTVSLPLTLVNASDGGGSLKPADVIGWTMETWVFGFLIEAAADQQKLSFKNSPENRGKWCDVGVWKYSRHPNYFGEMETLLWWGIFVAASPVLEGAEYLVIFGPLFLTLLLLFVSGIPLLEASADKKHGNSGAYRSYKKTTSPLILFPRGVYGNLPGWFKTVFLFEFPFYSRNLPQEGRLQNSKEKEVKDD : reported glycan array binding signal (z-score) = ?
Output: -0.173

Task: Entry Threefoil (Haloarcula marismortui) (protein) GSSHHHHHHHHHHSSGLVPRGSHMGDGYYKLVARHSGKALDVENASTSDGANVIQYSYSGGDNQQWRLVDLGDGYYKLVARHSGKALDVENASTSDGANVIQYSYSGGDNQQWRLVDLGDGYYKLVARHSGKALDVENASTSDGANVIQYSYSGGDNQQWRLVDL : reported glycan array binding signal (z-score) = ?
Output: 7.31

Task: Entry rMpL (Macrolepiota procera) (protein) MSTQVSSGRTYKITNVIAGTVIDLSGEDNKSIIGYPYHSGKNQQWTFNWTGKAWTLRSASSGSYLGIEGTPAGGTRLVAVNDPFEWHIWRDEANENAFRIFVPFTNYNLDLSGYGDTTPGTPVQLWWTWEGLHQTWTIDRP : reported glycan array binding signal (z-score) = ?
Output: 4.7

Task: Entry rCnSL-A (Clitocybe nebularis) (protein) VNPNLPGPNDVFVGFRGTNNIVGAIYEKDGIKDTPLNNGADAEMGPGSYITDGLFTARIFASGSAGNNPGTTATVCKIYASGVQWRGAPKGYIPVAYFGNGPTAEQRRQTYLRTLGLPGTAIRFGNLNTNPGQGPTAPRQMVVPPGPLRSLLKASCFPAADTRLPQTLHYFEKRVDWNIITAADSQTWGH : reported glycan array binding signal (z-score) = ?
Output: 10.3

Task: Entry Erv41-EDTA (Saccharomyces cerevisiae), Q04651 (protein) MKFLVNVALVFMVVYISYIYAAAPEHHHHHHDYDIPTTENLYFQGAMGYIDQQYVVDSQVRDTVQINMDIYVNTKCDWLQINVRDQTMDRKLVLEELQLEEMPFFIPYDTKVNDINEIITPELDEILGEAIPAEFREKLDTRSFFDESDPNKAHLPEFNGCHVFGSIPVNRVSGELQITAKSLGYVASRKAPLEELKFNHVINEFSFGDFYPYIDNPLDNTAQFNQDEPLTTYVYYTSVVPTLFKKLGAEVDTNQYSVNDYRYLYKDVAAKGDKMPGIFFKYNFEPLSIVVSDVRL : reported glycan array binding signal (z-score) = ?
Output: 2.63

Task: Entry Gal 9 (Homo sapiens), O00182 (protein) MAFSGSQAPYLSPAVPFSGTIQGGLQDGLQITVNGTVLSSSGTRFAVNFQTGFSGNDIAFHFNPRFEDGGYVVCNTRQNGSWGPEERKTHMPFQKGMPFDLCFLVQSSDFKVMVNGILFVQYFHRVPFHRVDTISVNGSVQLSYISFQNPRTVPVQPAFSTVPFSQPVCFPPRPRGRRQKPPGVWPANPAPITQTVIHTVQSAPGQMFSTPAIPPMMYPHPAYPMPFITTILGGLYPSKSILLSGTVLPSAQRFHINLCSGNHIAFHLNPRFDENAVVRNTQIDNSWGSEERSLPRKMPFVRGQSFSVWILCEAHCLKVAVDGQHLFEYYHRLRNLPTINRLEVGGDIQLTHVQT : reported glycan array binding signal (z-score) = ?
Output: 9.56

Task: Entry GS13455A-bfa-343-25-343 (Bacteroides fragilis) (protein) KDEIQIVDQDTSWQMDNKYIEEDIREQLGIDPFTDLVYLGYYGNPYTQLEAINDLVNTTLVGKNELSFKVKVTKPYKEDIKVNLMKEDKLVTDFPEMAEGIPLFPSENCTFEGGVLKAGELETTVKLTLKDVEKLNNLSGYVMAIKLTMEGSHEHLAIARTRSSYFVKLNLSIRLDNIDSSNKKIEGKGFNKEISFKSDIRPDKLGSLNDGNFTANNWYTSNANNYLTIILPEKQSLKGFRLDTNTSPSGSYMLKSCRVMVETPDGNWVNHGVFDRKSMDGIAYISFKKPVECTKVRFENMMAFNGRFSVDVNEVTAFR : reported glycan array binding signal (z-score) = ?
Output: 0.144
